Reference for the values: paper PMC8336461

# assay overview: Hep G2 cytotoxicity assay
# Type: cell-based
# measurement context: human, Hep G2 cells
measured quantity: CC50 at 72 h

* COC(=O)c1[nH]c(C(=O)OC)c(-c2c[nH]c3ccc(Cl)cc23)c1-c1c[nH]c2ccc(Cl)cc12 [Compound 12, lynamicin D] | > 10 µM
* COC(=O)c1[nH]cc(-c2c[nH]c3ccc(Cl)cc23)c1-c1c[nH]c2ccc(Cl)cc12 [Compound 13, lynamicin A] | > 10 µM
